# Measurement Notes: In vitro plasma stability, rat plasma
# Assay type: in vitro ADME
# Applied Conditions: male, pH 7.4, 5 μM, 37° C., sampling 0-360 minutes, read-out: T1/2 Rat
Endpoint Name: half-life at 5 μM (min)

Guide cases for half-life at 5 μM, answers given:
{"columns": ["Molecule", "Endpoint Name", "Display Unit", "Experimental Value"],
 "data": [
  ["CCOC1=NN(c2ccc(Br)cc2)C(=O)C1(NO)/C(C)=N/OC (centres unmarked) [Compound 111]", "half-life at 5 μM", "min", 23],
  ["CO/N=C(\\C)C1(NO)C(=O)N(C)N=C1C(C)(C)C (centres unmarked) [Compound 10]", "half-life at 5 μM", "min", 21],
  ["CC1=NN(C)C(=O)C1(NO)c1cccc(C)c1 (centres unmarked) [Compound 98]", "half-life at 5 μM", "min", 11],
  ["CC(C)(C)C1=NN(c2ccccc2)C(=O)C1(C)NO (centres unmarked) [Compound 23]", "half-life at 5 μM", "min", 136],
  ["CN1N=C(c2ccc(S(=O)(=O)N3CCOCC3)cc2)C(C)(NO)C1=O (centres unmarked) [Compound 80]", "half-life at 5 μM", "min", 80]
]}

I: CC1=NN(C)C(=O)C1(NO)c1ccc(S(C)(=O)=O)cc1 (centres unmarked) [Compound 37]
II: COc1ccc(C2=NN(C)C(=O)C2(C)NO)cc1 (centres unmarked) [Compound 53]
Task: Thinking about recorded half-life at 5 μM values, which is higher, I or II ? Field: selected label. Fill in the label of the entry you choose.
Result: II
